# Condition parameters: PBS
Here, each record is paired with measured Brightness (ϕ × ε) data.
Observation type: Brightness (ϕ × ε)

* Cc1ccccc1C1=C2C=CC(=[N+](C)C)C=C2[Si](C)(CCCCl)c2cc(N(C)C)ccc21 (stereo not drawn) | 64,113
* Cc1ccccc1C1=C2C=CC(=[N+]3CCC3)C=C2[Si](c2ccccc2)(c2ccccc2)c2cc(N3CCC3)ccc21 | 63,222
* C=C[Si]1(C=C)C2=CC(=[N+]3CCC3)C=CC2=C(c2ccccc2C)c2ccc(N3CCC3)cc21 | 48,268
* Cc1ccccc1C1=c2cc3c(cc2[Si](c2ccccc2)(c2ccccc2)c2cc4c(cc21)CCN4C)=[N+](C)CC3 | 12,870
* C=C[Si]1(C=C)c2cc3c(cc2C(c2ccccc2C)=c2cc4c(cc21)=[N+](C)CC4)CCN3C | 17,693
* Cc1ccccc1C1=C2C=CC(=[N+](C)C)C=C2[Si](C)(c2cccc(N(C)C)c2)c2cc(N(C)C)ccc21 (stereo not drawn) | 3700
* Cc1ccccc1C1=C2C=CC(=[N+](C)C)C=C2[Si](C)(CCC(F)(F)F)c2cc(N(C)C)ccc21 (stereo not drawn) | 39,854
* Cc1ccccc1C1=C2C=CC(=[N+](C)C)C=C2[Si](C)([C@H]2CC3C=CC2C3)c2cc(N(C)C)ccc21 (stereo partly drawn) | 60,800
* Cc1ccccc1C1=C2C=CC(=[N+](C)C)C=C2[Si](C)(c2ccccc2)c2cc(N(C)C)ccc21 (stereo not drawn) | 34,203
* Cc1ccccc1C1=C2C=CC(=[N+](C)C)C=C2[Si](c2ccccc2)(c2ccccc2)c2cc(N(C)C)ccc21 | 41,952
* CC[Si]1(CC)C2=CC(=[N+](C)C)C=CC2=C(c2ccccc2C)c2ccc(N(C)C)cc21 | 58,540
* C=C[Si]1(C=C)c2cc3c(cc2C(c2ccccc2C)=c2cc4c(cc21)=[N+](C)CCC4)CCCN3C | 75,104
* Cc1ccccc1C1=C2C=CC(=[N+]3CCC3)C=C2[Si](C)(C)c2cc(N3CCC3)ccc21 [Compound 024, reference compound] | 55,460
* C=C[Si]1(c2ccccc2)C2=CC(=[N+](C)C)C=CC2=C(c2ccccc2C)c2ccc(N(C)C)cc21 (stereo not drawn) | 53,499
* COc1cccc(OC)c1C1=C2C=CC(=[N+](C)C)C=C2[Si](C)(CCCCl)c2cc(N(C)C)ccc21 (stereo not drawn) | 76,000
* C=C[Si]1(C)C2=CC(=[N+](C)C)C=CC2=C(c2ccccc2C)c2ccc(N(C)C)cc21 (stereo not drawn) | 48,924
* Cc1ccccc1C1=c2cc3c(cc2[Si](C)(CCCCl)c2cc4c(cc21)CCCN4C)=[N+](C)CCC3 (stereo not drawn) | 41,250
* Cc1ccccc1C1=c2cc3c(cc2[Si](C)(CCCCl)c2cc4c(cc21)CCN4C)=[N+](C)CC3 (stereo not drawn) | 21,947
